Value source: ChEMBL document CHEMBL1145427

system: Lung; assay: Biodistribution in ICR mouse lung at 5 to 10 uCi, iv after 2 mins; type: ADME, organism-based; conditions: in vivo
quantity.name: Drug uptake (% ID/g)
Respond numerically; units are % ID/g and should not be typed.

Use the examples below as a reference point.
> print(dat)
                              line.notation  quantity.unit  obs.value
1  CN(C)c1ccc(-c2cn(-c3ccc(OCC[18F])cc3)nn2)cc1         % ID/g       5.68
2  CN(C)c1ccc(-c2cn(-c3ccc(OCCC[18F])cc3)nn2)cc1         % ID/g       7.65
3  CN(C)c1ccc(-c2cn(-c3ccc([125I])cc3)nn2)cc1         % ID/g       8.93

Now turn to the next compound.
Prompt: What reported Drug uptake corresponds to CNc1ccc(-c2cn(-c3ccc([125I])cc3)nn2)cc1 on Lung?
Response: 16

----------
// Drug uptake lookup, one value per entry
test system: Brain; test: Biodistribution in ICR mouse brain at 5 to 10 uCi, iv after 30 mins; type: ADME, organism-based; conditions: in vivo, 0.5 h
Respond numerically; units are % ID/g and should not be typed.

Use the examples below as a reference point.
> print(dat)
                              line.notation  obs.value
1  CN(C)c1ccc(-c2cn(-c3ccc(OCC[18F])cc3)nn2)cc1       2.53
2  CN(C)c1ccc(-c2cn(-c3ccc([125I])cc3)nn2)cc1       1.94

Prompt: What reported Drug uptake corresponds to CN(C)c1ccc(-c2cn(-c3ccc(OCCC[18F])cc3)nn2)cc1 on Brain?
Response: 2.84

Prompt: What reported Drug uptake corresponds to CNc1ccc(-c2cn(-c3ccc([125I])cc3)nn2)cc1 on Brain?
Response: 1.66

----------
system: Kidney; assay: Biodistribution in ICR mouse kidney at 5 to 10 uCi, iv after 1 hr; type: ADME, organism-based; settings: in vivo
quantity.name: Drug uptake (% ID/g)
Respond numerically; units are % ID/g and should not be typed.

Use the examples below as a reference point.
> print(dat)
                              line.notation  quantity.unit  obs.value
1  CN(C)c1ccc(-c2cn(-c3ccc(OCCC[18F])cc3)nn2)cc1         % ID/g       2.69
2  CN(C)c1ccc(-c2cn(-c3ccc(OCC[18F])cc3)nn2)cc1         % ID/g       2.44
3   CNc1ccc(-c2cn(-c3ccc([125I])cc3)nn2)cc1         % ID/g       3.71

Prompt: Would you kindly share the measured Drug uptake for CN(C)c1ccc(-c2cn(-c3ccc([125I])cc3)nn2)cc1 ?
Response: 2.13

----------
// Drug uptake lookup, one value per entry
tested on: Brain; experiment: Biodistribution in ICR mouse brain at 5 to 10 uCi, iv after 1 hr; type: ADME, organism-based; conditions: in vivo
Respond numerically; units are % ID/g and should not be typed.

Use the examples below as a reference point.
> print(dat)
                              line.notation  quantity.unit  obs.value
1  CN(C)c1ccc(-c2cn(-c3ccc(OCC[18F])cc3)nn2)cc1         % ID/g       2.34
2  CN(C)c1ccc(-c2cn(-c3ccc([125I])cc3)nn2)cc1         % ID/g       0.64
3   CNc1ccc(-c2cn(-c3ccc([125I])cc3)nn2)cc1         % ID/g        0.7

Now turn to the next compound.
Prompt: Would you kindly share the measured Drug uptake for CN(C)c1ccc(-c2cn(-c3ccc(OCCC[18F])cc3)nn2)cc1 ?
Response: 1.81

----------
// Drug uptake lookup, one value per entry
tested on: Blood; experiment: Biodistribution in ICR mouse blood at 5 to 10 uCi, iv after 30 mins; format: ADME, organism-based; conditions: in vivo, 0.5 h
Respond numerically; units are % ID/g and should not be typed.

> print(dat)
                              line.notation  quantity.unit  obs.value
1  CN(C)c1ccc(-c2cn(-c3ccc([125I])cc3)nn2)cc1         % ID/g       1.63
2  CN(C)c1ccc(-c2cn(-c3ccc(OCCC[18F])cc3)nn2)cc1         % ID/g       1.91
3  CN(C)c1ccc(-c2cn(-c3ccc(OCC[18F])cc3)nn2)cc1         % ID/g       2.65

Now turn to the next compound.
Prompt: What reported Drug uptake corresponds to CNc1ccc(-c2cn(-c3ccc([125I])cc3)nn2)cc1 on Blood?
Response: 3.04

----------
tested on: Lung; test: Biodistribution in ICR mouse lung at 5 to 10 uCi, iv after 2 hrs; format: ADME, organism-based; details: in vivo
quantity.name: Drug uptake (% ID/g)
Respond numerically; units are % ID/g and should not be typed.

Use the examples below as a reference point.
> print(dat)
                              line.notation  quantity.name  obs.value
1  CN(C)c1ccc(-c2cn(-c3ccc(OCC[18F])cc3)nn2)cc1    Drug uptake       1.79
2   CNc1ccc(-c2cn(-c3ccc([125I])cc3)nn2)cc1    Drug uptake       2.83
3  CN(C)c1ccc(-c2cn(-c3ccc([125I])cc3)nn2)cc1    Drug uptake       1.43

Prompt: Would you kindly share the measured Drug uptake for CN(C)c1ccc(-c2cn(-c3ccc(OCCC[18F])cc3)nn2)cc1 ?
Response: 0.76

----------
tested on: Muscle tissue; experiment: Biodistribution in ICR mouse muscle at 5 to 10 uCi, iv after 30 mins; type: ADME, organism-based; settings: in vivo, 0.5 h
// Drug uptake lookup, one value per entry
Respond numerically; units are % ID/g and should not be typed.

> print(dat)
                              line.notation  tested.system  quantity.unit  obs.value
1  CN(C)c1ccc(-c2cn(-c3ccc(OCC[18F])cc3)nn2)cc1  Muscle tissue         % ID/g       1.51
2  CN(C)c1ccc(-c2cn(-c3ccc(OCCC[18F])cc3)nn2)cc1  Muscle tissue         % ID/g       1.03
3  CN(C)c1ccc(-c2cn(-c3ccc([125I])cc3)nn2)cc1  Muscle tissue         % ID/g       1.11

Prompt: Would you kindly share the measured Drug uptake for CNc1ccc(-c2cn(-c3ccc([125I])cc3)nn2)cc1 ?
Response: 1.07

----------
// Drug uptake lookup, one value per entry
tested on: Zone of skin; assay: Biodistribution in ICR mouse skin at 5 to 10 uCi, iv after 2 mins; format: ADME, organism-based; details: in vivo
Respond numerically; units are % ID/g and should not be typed.

Prompt: Would you kindly share the measured Drug uptake for CN(C)c1ccc(-c2cn(-c3ccc(OCCC[18F])cc3)nn2)cc1 ?
Response: 0.93

Prompt: Would you kindly share the measured Drug uptake for CNc1ccc(-c2cn(-c3ccc([125I])cc3)nn2)cc1 ?
Response: 1.05

Prompt: Would you kindly share the measured Drug uptake for CN(C)c1ccc(-c2cn(-c3ccc([125I])cc3)nn2)cc1 ?
Response: 0.71

Prompt: Would you kindly share the measured Drug uptake for CN(C)c1ccc(-c2cn(-c3ccc(OCC[18F])cc3)nn2)cc1 ?
Response: 0.51

----------
// Drug uptake lookup, one value per entry
tested on: Liver; test: Biodistribution in ICR mouse liver at 5 to 10 uCi, iv after 2 hrs; format: ADME, organism-based; conditions: in vivo
Respond numerically; units are % ID/g and should not be typed.

Prompt: Would you kindly share the measured Drug uptake for CN(C)c1ccc(-c2cn(-c3ccc(OCCC[18F])cc3)nn2)cc1 ?
Response: 0.76

Prompt: Would you kindly share the measured Drug uptake for CN(C)c1ccc(-c2cn(-c3ccc(OCC[18F])cc3)nn2)cc1 ?
Response: 2.69

Prompt: Would you kindly share the measured Drug uptake for CNc1ccc(-c2cn(-c3ccc([125I])cc3)nn2)cc1 ?
Response: 6

Prompt: Would you kindly share the measured Drug uptake for CN(C)c1ccc(-c2cn(-c3ccc([125I])cc3)nn2)cc1 ?
Response: 2.49

----------
// Drug uptake lookup, one value per entry
tested on: Heart; assay: Biodistribution in ICR mouse heart at 5 to 10 uCi, iv after 2 mins; type: ADME, organism-based; settings: in vivo
Respond numerically; units are % ID/g and should not be typed.

> print(dat)
                              line.notation  obs.value
1  CN(C)c1ccc(-c2cn(-c3ccc(OCC[18F])cc3)nn2)cc1       4.25
2  CN(C)c1ccc(-c2cn(-c3ccc(OCCC[18F])cc3)nn2)cc1       5.79
3  CN(C)c1ccc(-c2cn(-c3ccc([125I])cc3)nn2)cc1       6.61

Prompt: Would you kindly share the measured Drug uptake for CNc1ccc(-c2cn(-c3ccc([125I])cc3)nn2)cc1 ?
Response: 7.45
